Target: BACE1 enzyme (Homo sapiens)
Construct: The HEK293-9B.A1 cell line, which overexpresses the BACE1 enzyme, was derived from HEK293 cells; endogenous in cells; washed membrane pellet / cell homogenate
Sequence (P56817 46-501): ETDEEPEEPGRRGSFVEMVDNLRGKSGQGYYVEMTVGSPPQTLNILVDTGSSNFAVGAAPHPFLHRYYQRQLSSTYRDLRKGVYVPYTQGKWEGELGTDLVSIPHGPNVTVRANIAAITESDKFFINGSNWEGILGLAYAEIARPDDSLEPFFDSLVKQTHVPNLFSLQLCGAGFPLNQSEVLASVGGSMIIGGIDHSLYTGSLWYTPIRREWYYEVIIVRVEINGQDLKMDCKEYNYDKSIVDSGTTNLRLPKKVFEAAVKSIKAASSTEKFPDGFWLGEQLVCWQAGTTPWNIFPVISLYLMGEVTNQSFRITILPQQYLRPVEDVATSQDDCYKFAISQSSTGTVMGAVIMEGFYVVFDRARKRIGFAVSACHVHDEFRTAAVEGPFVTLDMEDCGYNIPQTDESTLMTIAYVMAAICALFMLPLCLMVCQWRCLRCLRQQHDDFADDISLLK
Experiment: Radioligand displacement assay with a radiolabeled BACE inhibitor on HEK293-9B.A1 cell homogenate
Conditions: HEK293-9B.A1 cell homogenate overexpressing BACE1, 1 nM radioligand, pH 5.0, 1.5 hr at 25° C., read-out: Activity Rating (activity based on IC50 values)
readout kind: IC50

State recorded IC50 for all listed compounds.
1. COc1ccc2[nH]c(C)c(CC(=O)/N=C(\N)NCc3cc(Cl)c(NC(C)=O)c(Cl)c3)c2c1
2. N/C(=N\C(=O)Cc1cn(Cc2ccc(F)cc2)c2ccccc12)NCc1cc(Cl)c(N)c(Cl)c1

["100 to 1000 nM", "> 1000 nM"]

Provide IC50 for all items below, preserving their order.
1. CC(=O)Nc1c(Cl)cc(CN/C(N)=N/C(=O)Cc2c[nH]c3ccc(F)cc23)cc1Cl
2. CC(=O)Nc1c(Cl)cc(CN/C(N)=N/C(=O)Cc2c(C)[nH]c3c(F)cccc23)cc1Cl

1: 100 to 1000 nM; 2: 100 to 1000 nM
